src = ChEMBL document CHEMBL4251595

- Tested on: Pseudomonas aeruginosa
- protocolNotes: Antimicrobial activity against Pseudomonas aeruginosa assessed as zone of inhibition at 100 ug/well after 24 hrs by agar well diffusion method
- Format: functional
- testParameters: read-out: DIZ
Documented zone of inhibition at 100 µg/disc across a set of molecules
Give your result in mm as a bare value.

O=C(NS(=O)(=O)c1c(-c2ccccc2)noc1-c1ccc([N+](=O)[O-])cc1)c1ccc(Cl)s1 | 28
Cc1ccc(/C=C/S(=O)(=O)NC(=O)c2cccs2)cc1 | 9
O=C(NS(=O)(=O)c1c(-c2ccccc2)nn(-c2ccccc2)c1-c1ccccc1)c1ccc(Cl)s1 | 19
Cc1ccc(/C=C/S(=O)(=O)NC(=O)c2ccc(Cl)s2)cc1 | 12

Next:
Inquiry: Dear colleague, I am looking for the recorded zone of inhibition at 100 µg/disc of the following molecule: `O=C(N[C@H](CO)[C@H](O)c1ccc([N+](=O)[O-])cc1)C(Cl)Cl`
Reply text: 30
